Protocol notes: gradient 5% acetonitrile 3 min, to 50% in 2 min, to 85% in 15 min, held 3 min, 100 µL/min
Assay context: column: Zorbax Extend-C18 2.1 x 50 mm; eluents: water / acetonitrile, 0.1% formic acid
Measurement name: RP-LC retention time (s)

                                   compound  units_symbol  quantitative_result
0  COc1ccc(CN2CC[C@@H]3CN(S(C)(=O)=O)[C@@H]3C2)c(OC)c1             s                  580
1  O=C1CCCC(=O)N1CCS(=O)(=O)N1CCN(c2cccc(Cl)c2Cl)CC1             s                  887
2    COc1ccc(OC)c(S(=O)(=O)NCC2(C)CCOCC2)c1             s                  686
3  Cc1ccc(CNC(=O)C2CCCN(c3nnc4ccccn34)C2)cc1C (stereo not given)             s                  708
4  O=C1NCCCCCCN(C(=O)c2ccoc2)[C@H]2C[C@H](C(=O)N3CCc4ccccc4C3)C[C@@H]12             s                  762

* * *

Protocol notes: gradient 5% acetonitrile 3 min, to 50% in 2 min, to 85% in 15 min, held 3 min, 100 µL/min
Assay context: column: Zorbax Extend-C18 2.1 x 50 mm; eluents: water / acetonitrile, 0.1% formic acid
Measurement name: RP-LC retention time (s)

>>> df
                                   compound  units_symbol  quantitative_result
0    COc1ccc(-c2ccnc3nc(-c4cccs4)nn23)cc1OC             s                  832
1  Cc1ccc(CNC(=O)C2CCCCC(=O)N2C)o1 (centres undefined)             s                  644
2  Cc1cccc(N2C(=O)CN(CCc3ccccc3F)[C@H]3CS(=O)(=O)C[C@H]32)c1             s                  840
3  O=C(Cc1nnc2c(-c3nc(C4CC4)no3)cccn12)NC1CCCC1             s                  661
4  COc1nc(-c2ccc3c(c2)OCO3)n(-c2ccc(NC(=O)CSc3ccccc3)cc2)n1             s                  894

[1] CCn1nccc1-c1cccc(-c2noc(-c3cccnc3Cl)n2)c1
[2] COc1ccc(Cl)cc1NC(=O)C1CCCN(c2nc3ccccc3nc2C(F)(F)F)C1 (centres undefined)
Task item: Of 1 and 2 , which one carries the higher reported RP-LC retention time? Lab log: write the label of the selected item as the result.
Reply: 1

[1] CCOc1ccc(NC(=O)Cn2cnc3nc(N4CCCC(C(=O)NC5CC5)C4)sc3c2=O)cc1 (centres undefined)
[2] Cc1ccc(S(=O)(=O)N2CC=C(c3cn(C)c4ncccc34)CC2)cc1C
Task item: Of 1 and 2 , which one carries the higher reported RP-LC retention time? Lab log: write the label of the selected item as the result.
Reply: 2

* * *

Protocol notes: gradient 5% acetonitrile 3 min, to 50% in 2 min, to 85% in 15 min, held 3 min, 100 µL/min
Assay context: column: Zorbax Extend-C18 2.1 x 50 mm; eluents: water / acetonitrile, 0.1% formic acid
Measurement name: RP-LC retention time (s)

>>> print(df.to_string())
                                   compound  quantitative_result
0  COc1ccccc1-c1nc(C2CCN(C(=O)c3cc4ccccc4[nH]3)CC2)no1                  930
1  COc1ccccc1-n1ccn(Cc2nc(-c3ccccc3C)no2)c(=O)c1=O                  850
2  Cc1ccc(Nc2c(-c3ccc(Cl)cc3)nc3ncccn23)cc1C                  942
3  CC(C)OC(=O)c1ncoc1-c1ccccc1C(=O)N1CCN(C2CCCCC2)CC1                  638
4  COCCC(=O)NC1CCN(C2=NS(=O)(=O)C(c3ccc(C)cc3)=C2C)CC1                  708
5  CN1C(=O)c2ccccc2Oc2ccc(C(=O)N3CCC4(CC3)OCCO4)cc21                  741
6      COc1cccc(Cn2c(N3CCSCC3)nc(C)cc2=O)c1                  869
7  Cc1cccc(-c2noc(C3CCCN3C(=O)Nc3ccccc3Cl)n2)c1 (centres undefined)                  606
8  Cc1nc2cc(N3CC(C(=O)N4CCN(c5ccccc5C)CC4)CC3=O)ccc2o1 (centres undefined)                  848
